From: patent US10765764B2

Target: Q46 protein aggregates (Homo sapiens, UniProt P42858)
Construct: fused on or other part: An N-terminal GST tag, cleaved off with thrombin before the assay to trigger aggregation
Sequence (P42858 with tags, fused parts or gaps with the stated changes, form open): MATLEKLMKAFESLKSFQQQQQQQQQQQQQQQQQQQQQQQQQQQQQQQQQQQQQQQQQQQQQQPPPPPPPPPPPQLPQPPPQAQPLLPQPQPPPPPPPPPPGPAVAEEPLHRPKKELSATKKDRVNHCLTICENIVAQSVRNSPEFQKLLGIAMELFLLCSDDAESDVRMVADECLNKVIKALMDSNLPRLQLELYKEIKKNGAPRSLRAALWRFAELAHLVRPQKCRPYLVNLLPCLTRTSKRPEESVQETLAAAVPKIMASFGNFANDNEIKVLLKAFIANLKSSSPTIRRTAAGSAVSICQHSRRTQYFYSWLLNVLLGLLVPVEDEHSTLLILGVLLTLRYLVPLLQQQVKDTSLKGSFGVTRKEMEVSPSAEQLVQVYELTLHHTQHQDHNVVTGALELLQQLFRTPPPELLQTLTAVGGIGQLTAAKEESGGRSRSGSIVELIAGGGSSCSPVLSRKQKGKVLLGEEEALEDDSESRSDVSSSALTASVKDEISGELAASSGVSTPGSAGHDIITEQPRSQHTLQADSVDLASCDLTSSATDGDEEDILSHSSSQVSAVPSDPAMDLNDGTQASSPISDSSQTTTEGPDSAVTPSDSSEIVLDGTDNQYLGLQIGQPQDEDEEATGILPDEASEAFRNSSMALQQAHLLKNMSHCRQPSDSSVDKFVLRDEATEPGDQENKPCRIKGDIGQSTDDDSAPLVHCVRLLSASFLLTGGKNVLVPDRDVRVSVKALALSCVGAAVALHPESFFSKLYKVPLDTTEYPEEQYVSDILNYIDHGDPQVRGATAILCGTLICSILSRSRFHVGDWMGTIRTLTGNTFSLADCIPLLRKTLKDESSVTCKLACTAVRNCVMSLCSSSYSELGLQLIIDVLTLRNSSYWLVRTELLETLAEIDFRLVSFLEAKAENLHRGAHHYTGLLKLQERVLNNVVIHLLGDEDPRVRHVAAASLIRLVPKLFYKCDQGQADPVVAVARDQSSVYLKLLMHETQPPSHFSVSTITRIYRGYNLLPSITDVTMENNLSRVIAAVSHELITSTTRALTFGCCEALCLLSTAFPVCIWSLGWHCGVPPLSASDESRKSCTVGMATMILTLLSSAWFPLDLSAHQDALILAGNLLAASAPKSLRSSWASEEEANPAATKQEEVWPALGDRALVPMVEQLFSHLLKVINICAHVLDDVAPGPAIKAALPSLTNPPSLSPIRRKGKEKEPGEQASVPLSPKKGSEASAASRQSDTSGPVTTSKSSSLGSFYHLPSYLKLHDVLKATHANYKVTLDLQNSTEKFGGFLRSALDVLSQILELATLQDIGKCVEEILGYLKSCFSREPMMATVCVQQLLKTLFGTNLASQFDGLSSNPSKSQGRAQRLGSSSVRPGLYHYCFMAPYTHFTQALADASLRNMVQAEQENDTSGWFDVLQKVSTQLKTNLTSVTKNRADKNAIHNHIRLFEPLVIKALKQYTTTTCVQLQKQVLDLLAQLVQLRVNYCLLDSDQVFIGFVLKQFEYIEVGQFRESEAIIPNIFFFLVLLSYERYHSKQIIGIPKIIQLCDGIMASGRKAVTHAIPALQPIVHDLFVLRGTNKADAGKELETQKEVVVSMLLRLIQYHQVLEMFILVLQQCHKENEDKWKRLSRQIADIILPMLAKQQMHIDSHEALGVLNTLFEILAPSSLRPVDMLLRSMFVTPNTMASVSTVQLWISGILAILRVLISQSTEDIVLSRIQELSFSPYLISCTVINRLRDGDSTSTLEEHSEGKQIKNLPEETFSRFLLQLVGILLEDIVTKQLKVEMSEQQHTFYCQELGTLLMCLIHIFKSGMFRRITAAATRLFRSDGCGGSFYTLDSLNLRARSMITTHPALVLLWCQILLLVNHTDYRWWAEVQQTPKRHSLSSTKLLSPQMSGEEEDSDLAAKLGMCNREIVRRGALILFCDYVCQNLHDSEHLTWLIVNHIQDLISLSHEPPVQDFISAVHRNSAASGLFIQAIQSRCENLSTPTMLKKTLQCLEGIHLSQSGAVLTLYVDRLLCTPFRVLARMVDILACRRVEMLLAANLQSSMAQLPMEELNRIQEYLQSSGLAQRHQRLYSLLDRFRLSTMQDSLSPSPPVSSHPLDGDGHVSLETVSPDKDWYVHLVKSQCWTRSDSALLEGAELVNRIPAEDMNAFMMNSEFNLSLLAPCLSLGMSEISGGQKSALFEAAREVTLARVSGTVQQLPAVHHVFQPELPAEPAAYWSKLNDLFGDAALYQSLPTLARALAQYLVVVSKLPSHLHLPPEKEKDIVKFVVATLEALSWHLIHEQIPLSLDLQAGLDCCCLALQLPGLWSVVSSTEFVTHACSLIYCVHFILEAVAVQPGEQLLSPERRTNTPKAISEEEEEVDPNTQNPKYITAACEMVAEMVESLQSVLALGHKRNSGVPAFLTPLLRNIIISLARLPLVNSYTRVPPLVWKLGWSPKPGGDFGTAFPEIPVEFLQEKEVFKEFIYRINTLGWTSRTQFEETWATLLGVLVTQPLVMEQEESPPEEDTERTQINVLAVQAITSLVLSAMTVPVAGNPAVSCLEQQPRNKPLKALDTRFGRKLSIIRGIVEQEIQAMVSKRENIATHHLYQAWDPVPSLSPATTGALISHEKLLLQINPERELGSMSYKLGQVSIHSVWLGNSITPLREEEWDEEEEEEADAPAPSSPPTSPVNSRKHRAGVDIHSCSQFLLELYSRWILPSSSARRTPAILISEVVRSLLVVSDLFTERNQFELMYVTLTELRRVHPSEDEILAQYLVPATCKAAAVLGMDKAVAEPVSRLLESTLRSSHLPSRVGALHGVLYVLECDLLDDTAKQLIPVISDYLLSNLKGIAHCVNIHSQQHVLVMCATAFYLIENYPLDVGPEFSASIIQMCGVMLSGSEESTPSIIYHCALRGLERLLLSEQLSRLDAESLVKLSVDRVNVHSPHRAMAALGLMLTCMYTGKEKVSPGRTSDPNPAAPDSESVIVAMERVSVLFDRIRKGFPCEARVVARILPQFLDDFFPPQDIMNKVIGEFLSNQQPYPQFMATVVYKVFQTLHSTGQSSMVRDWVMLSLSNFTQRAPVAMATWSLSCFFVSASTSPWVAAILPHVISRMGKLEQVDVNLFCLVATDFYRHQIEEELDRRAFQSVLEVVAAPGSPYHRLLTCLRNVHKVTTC
Assay: Q46 Radioligand Binding Assay (RBA), displacement of [^3H3]MK-3328
Settings: 10 nM [^3H3]MK-3328, 5 μM Q46 protein aggregates
pIC50: −log10 of the molar value.
quantityMeasured: pIC50

Consider the worked cases shown below.
structureSmiles	targetEntity	pIC50
COc1ccc2c(c1)sc1nc(C(=O)Nc3ccc(=O)[nH]n3)cn12	Q46 protein aggregates (Homo sapiens, UniProt P42858)	> 7.00
COCCOc1ccc(NC(=O)c2ccn3c(n2)nc2ccccc23)cn1	Q46 protein aggregates (Homo sapiens, UniProt P42858)	> 7.00

Q. Would you kindly share the measured pIC50 for COc1cncc(NC(=O)c2ccn3c(n2)nc2ccc(OC)cc23)c1 ?
A. > 7.00

Q. Would you kindly share the measured pIC50 for COc1cc(NC(=O)c2ccn3c(n2)nc2ccccc23)cnc1OC ?
A. > 7.00

Q. Would you kindly share the measured pIC50 for Cn1cc(NC(=O)c2ccn3c(n2)nc2ccccc23)ccc1=O ?
A. 6.30 to 7.00

Q. Would you kindly share the measured pIC50 for COc1cncc(NC(=O)c2cn3c(n2)sc2cc(CN(C)C)ccc23)c1 ?
A. 6.30 to 7.00

Q. Would you kindly share the measured pIC50 for COc1ccc(NC(=O)c2cn3c(n2)sc2cc(OC)ccc23)nc1 ?
A. > 7.00

Q. Would you kindly share the measured pIC50 for COc1nccc(NC(=O)c2ccn3c(n2)nc2ccccc23)c1C#N ?
A. > 7.00

Q. Would you kindly share the measured pIC50 for N#Cc1cnccc1NC(=O)c1ccn2c(n1)nc1ccccc12 ?
A. > 7.00

Q. Would you kindly share the measured pIC50 for COc1ccc(NC(=O)c2cn3c(n2)sc2cc(O)ccc23)cn1 ?
A. > 7.00

Q. Would you kindly share the measured pIC50 for COc1cncc(NC(=O)c2cn3c(n2)sc2ncc(OC)cc23)c1 ?
A. > 7.00
